- Test system: MCF7
- testDetails: Cytotoxicity against human MCF7 cells incubated for 3 days by SRB assay
- Type: functional, cell-based
- conditionsUsed: MCF7, 72 h
I'd be grateful if you could share measured pIC50 for these entries.
pIC50 is defined as minus the log10 of a concentration measured in mol/L.

Considering [C-]#[N+][C@@H]1C2=C3C(=O)Nc4cccc(c43)C(C)(C)[C@H]2C[C@@H](Cl)[C@]1(C)C=C [ANHYDROHAPALOXINDOLE A] , its pIC50 with MCF7 was recorded as 4.25

Considering [C-]#[N+][C@@H]1[C@H]2c3c[nH]c4cccc(c34)C(C)(C)[C@@H]2CC[C@]1(C)C=C , its pIC50 with MCF7 was recorded as 4.79

Considering CC[C@@]1(O)C(=O)OCc2c1cc1n(c2=O)Cc2cc3ccccc3nc2-1 , its pIC50 with MCF7 was recorded as 7.10

Considering [C-]#[N+][C@@H]1[C@H]2c3c[nH]c4cccc(c34)C(C)(C)[C@H]2C[C@@H](Cl)[C@]1(C)C=C , its pIC50 with MCF7 was recorded as 4.51
